# targetOrSystem: Albumin (Bos taurus)
# testSummary: bovine serum albumin binders on microarray, profiling panel, artefact control for SMM control protein annotation, biochemical, small-molecule microarray, Alexa647 label, 635/667 nm fluorescence (AID 1118);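 further: score merges 667 nm emission intensity and signal-to-noise per printed compound spot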
# condition: BSA-A647 binding, fluorescence 635 nm, higher = more signal
recordedEndpoint: composite z-score
Quick one: just the number, no unit, thanks!

These recorded examples may help you get a feel for the data.
# molecule, composite z-score
data = [
    ("C[N+](C)(C)CCCCNC(=O)[C@@H]1C[C@@H]2C(=O)N[C@@H](Cc3ccccc3)C(=O)N2[C@@H]1c1cccc(OCCO)c1", -0.634),
    ("CC1(C)[C@@H]2CC(C(O)C3C=CC4C(=O)N(c5ccccc5)C(=O)C4N3Nc3ccc([N+](=O)[O-])cc3)=C[C@H]1C2 (stereo not given in full)", 0.973),
    ("COc1ccc([C@H]2OC[C@@H]3C[C@@H](Cc4ccccc4)C(=O)N32)cc1", -0.127),
]

Query block: Fill blank: measured composite z-score of the molecule `C=C[C@H](CO)NS(=O)(=O)c1ccc(Br)cc1` is ____.
Result block: 0.158

Query block: Likewise for `CCCC[C@@H]1C[C@H]1[C@@H](NC(=O)c1ccco1)c1ccc(-c2ccccc2)cc1` ?
Result block: 0.0697

Query block: # iterate: `[N-]=[N+]=Nc1ccccc1[C@@H]1OC(c2ccc(OCCCO)cc2)=N[C@]1(Cc1ccccc1)C(=O)N1CCOCC1`
Result block: 0.309
